- ASSAY_SYSTEM: T1, phosphorylated MCAK fragment Ile-Gln-Lys-Gln-Lys-Arg-Arg-Ser(PO3H2)-Val-Asn-Ser-Lys-Ile-Pro-Ala (SEQ ID NO:17) (human, also: Glu(biotinyl-PEG) coupled to the peptide, site not given here)
- T1 construct: Fragment of human mitotic centromere-associated kinesin (KIF2C, UniProt Q99661 printed); biotinylated control peptide; also called MCAK phosphopeptide
- T1 peptide: IQKQKRR[pS]VNSKIPA
- PROCEDURE_DETAILS: ELISA, single point, MCAK phosphopeptide coated
Square brackets hold non-standard residues; d marks the D form. Ends that are not written are not given here. pS = N[C@@H](COP(=O)(O)O)C(=O)O
VALUE_TYPE: OD 1:5 dilution of supernatant (mE)
Report the value in mE with no unit label.

anti-Tau pS422 antibody Mab 020 (antibody, V domains shown, Rabbit monoclonal antibody, recombinantly expressed in HEK293 with rabbit kappa and gamma constant regions) VH: QSVEESGGRLVTPGTPLTLTCKVSGFSLSSYDMNWVRQAPGKGLEWVGAISTGGNTYYASWAKGRFTISKTSTTVTLTITSPTTADTATYFCARGSSIWGPGTLVTVSL VL: QVLTQTASPVSAAVGSTVTINCQASQSVYKNNYLRWYQQKPGQPPKRLIYTASTLASGVSSRFKGSGSGTQFTLTISDVQCDDAATYYCLGGYDCNSADCWAFGGGTEVVVK ... 0.01
anti-Tau pS422 antibody Mab 097 (antibody, V domains shown, Rabbit monoclonal antibody, recombinantly expressed in HEK293 with rabbit kappa and gamma constant regions) VH: QSVEESGGRLVTPGTPLTLTCTVSGIDLSSYSITWVRQAPGKGLEYIGFIGTGGSTYYASWAKGRFTISRTSTTVDLKITSPTTEDTATYFCARGGDLWGPGTLVTVSS VL: QVLTQTASSVSAAVGGTVTINCQSSQNVYNNNKLAWFQQKPGQPPKRLIYGASTLASGVSSRFKGSGSGTQFTLTISDLECDDAATYYCLGGYSGNIYTFGGGTEVVVK ... 0.029

// next entry
stdin: What value of measured OD 1:5 dilution of supernatant is listed for anti-Tau pS422 antibody Mab 085 (antibody, V domains shown, Rabbit monoclonal antibody, recombinantly expressed in HEK293 with rabbit kappa and gamma constant regions) VH: QSVEESGGRLVTPGTPLTLTCTVSGLSLSSNAINWVRQAPGKGLEWIGYIAVSGNTYYASWAKGRFTISKASTTVDLKMTSPTAEDTGTYFCGKSNIWGPGTLVTVSL VL: QVLTQTASPVSAAVGITVTISCQSSQSVRTNKLAWFQQKPGQPPKRLIYSASTLDSGVPSRFSASGSGTQFTLTISDVQCDDAATYYCLGYYDCSIADCVAFGGGTEVVVK ?
stdout: 0.062

Just for reference, patent US20110059093A1 is where these values come from.
